Values compiled from the nanobody polyreactivity screen of Harvey et al. (2022).

- method_summary: yeast display, Sf9 membrane polyspecificity reagent, FACS + sequencing; frameworks hold sequencing errors
measurement_name: polyreactivity (PSR sort gate)

Study these solved cases before continuing.
{"sequence_data": "QVQLVESGGGLVQAGGSLRLSCAASGSSFDPYAMGWYRQAPGKERELVATITYSGGRTYYADSVKGRFTISRDNAKNTVYLQMNSLKPEDTAVYYCAADWDPGYYVQYGYDYWGQGTQVTVSS", "polyreactivity (PSR sort gate)": "low polyreactivity"}
{"sequence_data": "QVQLVESWGGLVQAGGSLRLSCPASGYIIQTYAMGWYRQAPGKEREFLAAMTSGAGRTSYADSVKGRFTISRDNAKNTVYLQLHRLKPEDTAVYFCAARWRYQLSGSRLSYGKYDYWGQGTQVTVSS", "polyreactivity (PSR sort gate)": "high polyreactivity"}
{"sequence_data": "QVQLVESGGGLVQAGGSLRLSSAASGRTFVNYTMGWYRQAPGIERELVAAITSSGGSTYYADSVKGRFTISRDNAKNTVYLQMNSLKPEDTAVYYCAAAKFDLSFWLYYWGQGTQVTVSS", "polyreactivity (PSR sort gate)": "low polyreactivity"}
{"sequence_data": "QVQLVESGGCLVQAGGSLRLSCAASGFTFPNAMGWYIQAPGKERELDATISSSGGSTYYADSVKGRFTISRDNAKNTVYLQMNSLKPEDTAVFYCAARTRQYLIYRAYRYDYWGQGTQVTVSS", "polyreactivity (PSR sort gate)": "low polyreactivity"}

I am curious: what polyreactivity (PSR sort gate) value has been reported for `QVQLVESGGGLVQAGGSLRLSCAASGFTFSKYAMGWYRQAPGKERELVAGITWSGGRTYYADSVKGRFTISRDNAKNTVYLQLNSLIPDDSAVYYCAADPVWGRYIKYDYWGQGTQVTVSS` ? high polyreactivity

I am curious: what polyreactivity (PSR sort gate) value has been reported for `QVQLVESGGGLVQAGGSLRLSCAASGRIFNRYARGWYRQAPGKERELVAAITYNGGSTYYADSVKGRFTISRDNAKNTVYLQMNSLKPEDTAVYYCNAVEVLDEGCGFWYYYWGQGTQVTVSS` ? high polyreactivity

I am curious: what polyreactivity (PSR sort gate) value has been reported for `QVQLVESGGGLVQAGGRLPLSCAASGSTIYINAMGWYRQPPGKQRELVAPISYSGGSSYFADSVKGRFTISRDYAKNTVYFQKNSLIPEDTRVYYCYARGLQSFYPGYWFRGDFWGQGTQVTVSS` ? high polyreactivity

###

- method_summary: yeast display, Sf9 membrane polyspecificity reagent, FACS + sequencing; frameworks hold sequencing errors
measurement_name: polyreactivity (PSR sort gate)

Study these solved cases before continuing.
{"sequence_data": "QDQLVESGGGLVQAGGSLRLSCAASGSSFDINAMGGYRQAPGKERELVAAISWIGGSTYYADSVKGRFTISRDNAKNTVYLKMNSLKPEDTAVYYCAKKELRQYDMEYWGQGTQVTVSS", "polyreactivity (PSR sort gate)": "low polyreactivity"}
{"sequence_data": "QVQLVESGGGLVQAGGSLRLSCAASGSTIFENVMGWYRQAPGKEREFVAAINTSGGSTYYADSVKGRFTISRDNAKYTVYLQMNSLKPEDTAVYYCARDSYWEMDYWGQGTQVNVSS", "polyreactivity (PSR sort gate)": "low polyreactivity"}
{"sequence_data": "QVQLVESGGGLVQAGGSLRLSCAASGSTFVYNAMGWYRQAPGKEREFVAVINWSGGRTYADSVKGRFTISRDNAKNTVYLQMISLKPEDTEVYYCIARRRTGYRPAMDYWGQGTEVTVSS", "polyreactivity (PSR sort gate)": "high polyreactivity"}
{"sequence_data": "QDQLVESGGGLVQAGGSLRLSCAASGRTISYYAMGWYRQAPGKERELVAAISGGGSTNYADSVKGRFTISRDNAKNTVYLQMNSLKPEDTAVYYCNARVYGVFRRRVNYWGQGTQVTVSS", "polyreactivity (PSR sort gate)": "high polyreactivity"}
{"sequence_data": "QVQLVESGGGLVQAGGILRLSCAASGLIFKYNAMGWYRQAPGKERELVAAISTSGGSTYYADSVKGRFTISRDNAKNTVYLQMNSLKPEDTAVYYCNVAYIKTRLFRPYDYWGQGTQVTVSS", "polyreactivity (PSR sort gate)": "high polyreactivity"}
{"sequence_data": "QVQLVESGGGLVQAGGSLRLSCAASGPIFSDYTMGWYRQAPGKERELVAVISRRGTSTYYADSVKGRFTISRDNAKNTVDLQMNSLKPEDTAVYYCAADDNTYKFYYWGQGTQVTVSS", "polyreactivity (PSR sort gate)": "high polyreactivity"}
{"sequence_data": "QVQLVDSGGGLVQAGGSLRLSCAASGSTFTYYAMGWYRPAPGKERELVASITTSGGDTNYADSVKGRFTISRDNAKKTVYLQRNSQKPEDTPLYYCNTTTDQHYGYCAAADADRKYDYWGQGTQVTVSS", "polyreactivity (PSR sort gate)": "low polyreactivity"}
{"sequence_data": "QVQLVESCGGLVQAGGSLRLSCAASGYTFRYYAMGWYRQAPGKERELVARITGRAGSTYYADSVKGRFTISRDNAKNTVYLQMNSLKPEDTAVYYCAASIREGFYWGHGTQVTVSS", "polyreactivity (PSR sort gate)": "high polyreactivity"}
{"sequence_data": "QVQLVESGGGLVQAGGSLRLSCAASGLTFAQYAMGWYRQAPGKERELVAAITSRGTNTYYADSVKGRFTISRDNAKNTVYLQMNSLKPEDTAVYYCNTYRARLGTTFIDYDYWGQGTQVTVSS", "polyreactivity (PSR sort gate)": "high polyreactivity"}
{"sequence_data": "QVQLVESGGGLVQAGGSLRLSCPPSGTFSFYAMGWYRQAPGKERELVATIRSGGRTYYADSVKGRFTISRDNAKNTVYLQMNSLKPEDTAVYYCAAASTKLSGSDYDYWGQGTQVTVSS", "polyreactivity (PSR sort gate)": "high polyreactivity"}

Consider now this further sequence.
I am curious: what polyreactivity (PSR sort gate) value has been reported for `QVQLVESGGGLVQAGGSLRLSCAASGSTFQPYAMGWYRQAAGNEREFVATISGSAGSTNYADSVKGRFTTSRDNAKSTVYLQMNSLKPEDTALYYCNALYRYLYRSGDYWGQGNQVTVSS` ? low polyreactivity
